Entries annotated with measured log10 of odt
Assay: Odor detection threshold (ODT)
Settings: Table 15
A difference of one corresponds to tenfold odt; all values are log10 with odt in ppb.

> print(dat)
                                   compound  experimentalvalue
1  CC/C=C\CC/C=C/C=O [TRANS 2 CIS 6 NONADENAL, TRANS 2 CIS 6 NONADIENAL]              -0.70
2   CC(C)CC1CCCC(C)(O)C1 (stereo not drawn)               2.64
3    C=CC(C)(O)CCC=C(C)C (stereo not drawn)               1.30
4      CC(C)=CCCC(C)CC=O (stereo not drawn)               1.52
5           CCCCC/C=C\CCC=O [CIS 4 DECENAL]               0.49

Consider the additional compound presented here.
Query: Tell me the measured log10 of odt of CCCCCCCCCC=O , please.
Reply: 0.94
